Provide the reported pIC50 of each item.
System: monoclonal antibody 245B5
Assay: Competitive ELISA for NNK using monoclonal antibody 245B5
Assay type: binding, mice
Conditions: Table 3, parent compound vs N-nitroso derivative, read-out: 50% Inhibition at
Description: Microtiter plates (Nunc, Maxisorp) were coated by adding 100 μl per well of goat anti mouse IgG Fc specific (Jackson Immunoresearch, West Grove, Pa.) at 2.5 micrograms per milliliter (μg/ml) in phosphate buffered saline (Sigma Chemical Co.) and allowing the solution to sit overnight. […] Color was read at 650 nm after fifteen minutes in a microplate reader (SpectraMax Plus, Molecular Devices, Sunnyvale, Calif.). […]
Give bare numbers, as −log10 of the molar value.

{"SMILES_TEXT": "CCCCN(CCCC)N=O", "RESULT_VALUE": 1.80}
{"SMILES_TEXT": "O=NN1CC=CC[C@H]1c1cccnc1", "RESULT_VALUE": 5.74}
{"SMILES_TEXT": "O=NN1CCCC1", "RESULT_VALUE": 2.52}

Attention now turns to another entry.
GET /value?item= `O=NN1CCCC[C@H]1c1cccnc1` &field=pIC50 returns 5.15
